I'd appreciate it if you could supply Fold change (amount of 5-hmC) values for the items below.
ASSAY TARGET: TET2 (Homo sapiens (Human))
EXPERIMENT NOTES: Determination of TET2 activity in cell (5-hmC dot-blot, TET2-transfected HEK293T cells)
Assay type: cell-based
REPORTED CONDITIONS: 10 μM compound, HEK293T transfected with pCMV6-TET2, 48 h after transfection; in reference to vehicle, corrected with example 1 condition
Returns: the value as a bare number; no unit string appended.

Documented Fold change (amount of 5-hmC) of Cc1[nH]c2ccccc2c1-c1nc(NC(=O)Cc2cn3ccsc3n2)sc1C : 9.2

Lookup result for Cc1[nH]c2ccccc2c1-c1csc(NC(=O)Cc2cc(Br)cs2)n1 ; measured Fold change (amount of 5-hmC): 8.4

Noted for Cc1[nH]c2ccccc2c1-c1csc(NC(=O)Cc2c[nH]c3ccc(F)cc23)n1 : its Fold change (amount of 5-hmC) reads 16.0

Form: compound = Cc1[nH]c2ccccc2c1-c1csc(NC(=O)Cc2c[nH]c3ccccc23)n1 ; Fold change (amount of 5-hmC) = 11.6

Sample Cc1[nH]c2ccccc2c1-c1csc(NC(=O)Cc2c[nH]c3ccc(O)cc23)n1 ; Fold change (amount of 5-hmC) observed: 15.3

---

Test system: HL60 cell line
EXPERIMENT NOTES: Antiproliferative activity on HL60 cell line (CellTiter-Glo)
Type: cell-based
REPORTED CONDITIONS: Homo sapiens, HL-60; HL60, 72 h of treatment
PROPERTY: pEC50
// pEC50: -log10(molar conc.)

Lab book: pEC50 of O=C(Cc1cn2ccsc2n1)Nc1nc(-c2c[nH]c3cccc(Br)c23)cs1 [Example 22] noted as 6.58

Item: Cc1[nH]c2ccccc2c1-c1csc(NC(=O)Cc2nc3ccccc3o2)n1 [Example 3] | pEC50: 5.89

Sample Cc1[nH]c2ccccc2c1-c1csc(NC(=O)Cc2c[nH]c3ccc(O)cc23)n1 [Example 21] ; pEC50 observed: 7.20

Looking up Cc1[nH]c2ccccc2c1-c1csc(N(C)C(=O)C(C)c2cn3ccsc3n2)n1 (centres unmarked) [Example 15] , I see its pEC50 listed as 4.69

Form: compound = Cc1[nH]c2ccccc2c1-c1csc(NC(=O)Cc2cc(Br)cs2)n1 [Example 19] ; pEC50 = 6.09

Lab note: measured pEC50 of Cc1[nH]c2ccccc2c1-c1csc(NC(=O)Cc2cn(C)c3ccccc23)n1 [Example 11] was 5.66

Recorded result, Cc1[nH]c2ccccc2c1-c1csc(NC(=O)CCc2c[nH]c3ccccc23)n1 [Example 14] , pEC50: 4.87

// pEC50 value for Cc1[nH]c2ccccc2c1-c1csc(NC(=O)Cc2c[nH]c3ccccc23)n1 [Example 13] : 5.85

For record Cc1[nH]c2ccccc2c1-c1csc(NC(=O)Cc2cn3ccsc3n2)n1 [Example 1] the listed pEC50 is 6.95

The reported pEC50 of the compound COc1ccc2[nH]cc(CC(=O)Nc3nc(-c4c(C)[nH]c5ccccc45)cs3)c2c1 [Example 6] was 5.47

pEC50 in this record for Cc1[nH]c2ccccc2c1-c1csc(NC(=O)Cc2csc3nccn23)n1 [Example 2] : 5.37

Kindly note the recorded pEC50 for Cc1[nH]c2ccccc2c1-c1nc(NC(=O)Cc2cn3ccsc3n2)sc1C [Example 4] , which is 5.64

Field pEC50 (entry Cc1[nH]c2ccccc2c1-c1csc(NC(=O)Cc2cn3c(C)csc3n2)n1 [Example 10] ) reads 5.48

Briefly, pEC50 measured for Cc1ccc2[nH]cc(-c3csc(NC(=O)Cc4cn5ccsc5n4)n3)c2c1 [Example 24] : 6.04

Lab note: measured pEC50 of Cc1[nH]c2ccccc2c1-c1csc(NC(=O)Cc2c[nH]cn2)n1 [Example 17] was 5.31

// sample Cc1[nH]c2ccccc2c1-c1csc(NC(=O)Cc2cc3ccccc3o2)n1 [Example 18] , its pEC50 was 5.12

The recorded pEC50 for entry Cc1[nH]c2ccccc2c1-c1csc(NC(=O)Cc2c[nH]c3ccc(F)cc23)n1 [Example 12] equals 6.30

Field pEC50 (entry Cc1[nH]c2ccccc2c1-c1csc(NC(=O)Cc2cc3ccccc3[nH]2)n1 [Example 7] ) reads 5.03

Value of pEC50 reported for the compound Cc1[nH]c2ccccc2c1-c1csc(NC(=O)Cc2cn3cc(F)ccc3n2)n1 [Example 8] is 7.14

Memo: Cc1[nH]c2ccccc2c1-c1coc(NC(=O)Cc2cn3ccsc3n2)n1 [Example 5] , reported pEC50: 4.92
